- PROCEDURE TEXT: CellTiter-Huor Cell Viability Assay
- Type: cell-based
- CONDITION DETAILS: human, ARPE-19 retinal pigment epithelium cells, ARPE-19, 15 μM fenretinide equivalent, read-out: cell viability or growth of untreated control
MEASURED PARAMETER: viability at 48 h, 15 μM
Returns: string containing the numeric result and its unit.

Quick note, viability at 48 h, 15 μM for CC1=C(/C=C/C(C)=C/C=C/C(C)=C/C(=O)Nc2ccc(O)cc2)C(C)(C)CCC1 [Fenretinide, N[4-hydroxyphenyl]retinamide] landed at 31%

Cited source for all entries: patent US20220323412A1
